Reported Decomposition efficiency: ratio of each glycoside/aglycon within its isoflavone family values for a set of compounds
# Test system: Crude diglycosidase
# RUN DESCRIPTION: Examination of substrate concentration in the conversion into isoflavone aglycons by diglycosidase using soybean materials;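 further: percent of the isoflavone family total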
# Type: biochemical, Penicillium multicolor IAM7153
# ASSAY CONDITIONS: defatted soybean, substrate concentration 5%, heat treatment of enzyme no, reaction time 3 h
# Procedure: Into 20 mM acetate buffer of pH 4.0 was suspended 0.1 g, 0.25 g, 0.5 g, 1.0 g, or 1.5 g of each of various soybean materials (roasted soy flour (manufactured by Fuji Shokuryo K.K.), soymilk (manufactured by Gitoh Shokuhin K.K.), defatted soybean (manufactured by Fuji Seiyu K.K.), concentrated soybean protein (manufactured by Fuji Seiyu K.K.)). The pH of the suspension was measured and the liquid volume was adjusted to 4.5 mL while the pH was adjusted to 4.0 with 1N hydrochloric acid. […]
MEASURED PARAMETER: Decomposition efficiency: ratio of each glycoside/aglycon within its isoflavone family (%)

>  <COMPOUND>
COc1cc2c(=O)c(-c3ccc(O)cc3)coc2cc1O [glycitein]

>  <MEASURED RESULT>
68.2

$$$$
>  <COMPOUND>
COc1cc2c(=O)c(-c3ccc(O)cc3)coc2cc1O[C@@H]1O[C@H](COC(=O)CC(=O)O)[C@@H](O)[C@H](O)[C@H]1O [malonylglycitin, 6″-O-malonylglycitin]

>  <MEASURED RESULT>
31.8

$$$$

---

# Tested on: β-Glucosidase derived from almond
# RUN DESCRIPTION: Reactivity toward various isoflavone glycosides (HPLC)
# Format: biochemical
# Parameters: unit not given here
# ASSAY CONDITIONS: Reaction time 3 h; 55 °C, pH 4.0
Entries and their aglycon

>  <COMPOUND>
CC(=O)OC[C@H]1O[C@@H](Oc2cc(O)c3c(=O)c(-c4ccc(O)cc4)coc3c2)[C@H](O)[C@@H](O)[C@@H]1O [acetylgenistin, 6″-O-acetylgenistin]

>  <aglycon>
0

$$$$
>  <COMPOUND>
O=c1c(-c2ccc(O)cc2)coc2cc(O[C@@H]3O[C@H](CO)[C@@H](O)[C@H](O)[C@H]3O)cc(O)c12 [genistin]

>  <aglycon>
11.4

$$$$
>  <COMPOUND>
COc1cc2c(=O)c(-c3ccc(O)cc3)coc2cc1O[C@@H]1O[C@H](COC(C)=O)[C@@H](O)[C@H](O)[C@H]1O [acetylglycitin, 6″-O-acetylglycitin]

>  <aglycon>
0

$$$$

---

Catalogue of compounds with associated Decomposition efficiency of daidzin family in concentrated soybean protein
# Test system: Crude diglycosidase
# RUN DESCRIPTION: Examination of pH in the conversion into isoflavone aglycons by diglycosidase using soybean materials
# Format: biochemical, Penicillium multicolor IAM7153
# ASSAY CONDITIONS: pH5.1; heat treatment of enzyme: no; reaction time 1 h
MEASURED PARAMETER: Decomposition efficiency of daidzin family in concentrated soybean protein (%)

>  <CHEMICAL SMILES>
O=c1c(-c2ccc(O)cc2)coc2cc(O)ccc12

>  <MEASURED RESULT>
56.6

$$$$
>  <CHEMICAL SMILES>
CC(=O)OC[C@H]1O[C@@H](Oc2ccc3c(=O)c(-c4ccc(O)cc4)coc3c2)[C@H](O)[C@@H](O)[C@@H]1O

>  <MEASURED RESULT>
43.4

$$$$

---

# Test system: Crude diglycosidase
# RUN DESCRIPTION: Examination of pH in the conversion into isoflavone aglycons by diglycosidase using soybean materials
# Type: biochemical, Penicillium multicolor IAM7153
# ASSAY CONDITIONS: pH2, heat treatment of enzyme no, reaction time 0 h, 55° C.
MEASURED PARAMETER: Decomposition efficiency of glycitin family in roasted soy flour

>  <CHEMICAL SMILES>
COc1cc2c(=O)c(-c3ccc(O)cc3)coc2cc1O

>  <MEASURED TARGET>
Crude diglycosidase

>  <MEASURED RESULT>
7.9

$$$$
>  <CHEMICAL SMILES>
COc1cc2c(=O)c(-c3ccc(O)cc3)coc2cc1O[C@@H]1O[C@H](CO)[C@@H](O)[C@H](O)[C@H]1O

>  <MEASURED TARGET>
Crude diglycosidase

>  <MEASURED RESULT>
56.8

$$$$
>  <CHEMICAL SMILES>
COc1cc2c(=O)c(-c3ccc(O)cc3)coc2cc1O[C@@H]1O[C@H](COC(C)=O)[C@@H](O)[C@H](O)[C@H]1O

>  <MEASURED TARGET>
Crude diglycosidase

>  <MEASURED RESULT>
35.3

$$$$

---

Parameter: Decomposition efficiency of glycitin family in concentrated soybean protein. Scope: all listed entries.
# Test system: Crude diglycosidase
# RUN DESCRIPTION: Examination of pH in the conversion into isoflavone aglycons by diglycosidase using soybean materials
# Type: biochemical, Penicillium multicolor IAM7153
# ASSAY CONDITIONS: pH2.7; heat treatment of enzyme: yes; reaction time 6 h
MEASURED PARAMETER: Decomposition efficiency of glycitin family in concentrated soybean protein (%)

>  <COMPOUND>
COc1cc2c(=O)c(-c3ccc(O)cc3)coc2cc1O[C@@H]1O[C@H](COC(=O)CC(=O)O)[C@@H](O)[C@H](O)[C@H]1O [malonylglycitin, 6″-O-malonylglycitin]

>  <MEASURED TARGET>
Crude diglycosidase

>  <MEASURED RESULT>
0.4

$$$$
>  <COMPOUND>
COc1cc2c(=O)c(-c3ccc(O)cc3)coc2cc1O[C@@H]1O[C@H](COC(C)=O)[C@@H](O)[C@H](O)[C@H]1O [acetylglycitin, 6″-O-acetylglycitin]

>  <MEASURED TARGET>
Crude diglycosidase

>  <MEASURED RESULT>
35.4

$$$$
>  <COMPOUND>
COc1cc2c(=O)c(-c3ccc(O)cc3)coc2cc1O[C@@H]1O[C@H](CO)[C@@H](O)[C@H](O)[C@H]1O [glycitin]

>  <MEASURED TARGET>
Crude diglycosidase

>  <MEASURED RESULT>
52.7

$$$$
>  <COMPOUND>
COc1cc2c(=O)c(-c3ccc(O)cc3)coc2cc1O [glycitein]

>  <MEASURED TARGET>
Crude diglycosidase

>  <MEASURED RESULT>
11.5

$$$$

---

# Test system: Crude diglycosidase
# RUN DESCRIPTION: Examination of pH in the conversion into isoflavone aglycons by diglycosidase using soybean materials
# Type: biochemical, Penicillium multicolor IAM7153
# ASSAY CONDITIONS: pH4, heat treatment of enzyme yes, reaction time 6 h, 55° C.
# Decomposition efficiency of daidzin family in roasted soy flour annotations
MEASURED PARAMETER: Decomposition efficiency of daidzin family in roasted soy flour

>  <CHEMICAL SMILES>
O=c1c(-c2ccc(O)cc2)coc2cc(O[C@@H]3O[C@H](CO)[C@@H](O)[C@H](O)[C@H]3O)ccc12

>  <MEASURED RESULT>
48.6

$$$$
>  <CHEMICAL SMILES>
CC(=O)OC[C@H]1O[C@@H](Oc2ccc3c(=O)c(-c4ccc(O)cc4)coc3c2)[C@H](O)[C@@H](O)[C@@H]1O

>  <MEASURED RESULT>
47.9

$$$$
>  <CHEMICAL SMILES>
O=c1c(-c2ccc(O)cc2)coc2cc(O)ccc12

>  <MEASURED RESULT>
3.5

$$$$

---

# System: Crude diglycosidase
# RUN DESCRIPTION: Examination of pH in the conversion into isoflavone aglycons by diglycosidase using soybean materials
# Assay type: biochemical, Penicillium multicolor IAM7153
# ASSAY CONDITIONS: pH2, heat treatment of enzyme yes, reaction time 6 h, 55° C.
MEASURED PARAMETER: Decomposition efficiency of daidzin family in roasted soy flour

>  <CHEMICAL SMILES>
CC(=O)OC[C@H]1O[C@@H](Oc2ccc3c(=O)c(-c4ccc(O)cc4)coc3c2)[C@H](O)[C@@H](O)[C@@H]1O

>  <MEASURED RESULT>
42.4

$$$$
>  <CHEMICAL SMILES>
O=c1c(-c2ccc(O)cc2)coc2cc(O[C@@H]3O[C@H](CO)[C@@H](O)[C@H](O)[C@H]3O)ccc12

>  <MEASURED RESULT>
53.8

$$$$
>  <CHEMICAL SMILES>
O=c1c(-c2ccc(O)cc2)coc2cc(O)ccc12

>  <MEASURED RESULT>
3.8

$$$$

---

# Tested on: Crude diglycosidase
# RUN DESCRIPTION: Examination of pH in the conversion into isoflavone aglycons by diglycosidase using soybean materials
# Assay type: biochemical, Penicillium multicolor IAM7153
# ASSAY CONDITIONS: pH5, heat treatment of enzyme no, reaction time 0 h, 55° C.
MEASURED PARAMETER: Decomposition efficiency of daidzin family in roasted soy flour

>  <CHEMICAL SMILES>
CC(=O)OC[C@H]1O[C@@H](Oc2ccc3c(=O)c(-c4ccc(O)cc4)coc3c2)[C@H](O)[C@@H](O)[C@@H]1O

>  <MEASURED RESULT>
47.7

$$$$
>  <CHEMICAL SMILES>
O=c1c(-c2ccc(O)cc2)coc2cc(O)ccc12

>  <MEASURED RESULT>
3.5

$$$$
>  <CHEMICAL SMILES>
O=c1c(-c2ccc(O)cc2)coc2cc(O[C@@H]3O[C@H](CO)[C@@H](O)[C@H](O)[C@H]3O)ccc12

>  <MEASURED RESULT>
48.7

$$$$
